assay.comment: yeast display, Sf9 membrane polyspecificity reagent, FACS + sequencing; frameworks hold sequencing errors
property.measured: polyreactivity (PSR sort gate)

- macromolecule.sequence: "QVQLVESVGGLVQAGGSLRLSCAGSGRIFRNYAMGWYRQAPGKERELVAAISDSSGSTYYADSVKGRFTISRDNAKNTVYLQMNILKPEHTAVYFCRYYFGSGYYYWGQGTQVTVSS"
  property.measured: "polyreactivity (PSR sort gate)"
  assay.result: "high polyreactivity"
- macromolecule.sequence: "QVQLVESGGGLVQAGGSLRLSCAASGSIFPYYAMGWYIQAPGKERELVAVITTSGGRTYYADSVKGRFTISRDNAKNTVYLQMNSLKPEDTAVYYCATDVRQGSGWRYYYWGQGTQVTVSS"
  property.measured: "polyreactivity (PSR sort gate)"
  assay.result: "high polyreactivity"
- macromolecule.sequence: "QVQLVESGGGLVQAGGSLRLSCAASGRIFARNTMGWYRQAPGKERELVAAISWGGGRTYYADSVKGRFTISRDNAKNTVYLQMNSLKPEDTAVFYCAAETLQIPRGEYWGQGTQVTVSS"
  property.measured: "polyreactivity (PSR sort gate)"
  assay.result: "low polyreactivity"
- macromolecule.sequence: "QVQLVESGGGLVQAGGSLRLICAASGRTFARYTMGWYRQARGKERELVASITRGGSTYYADSVKGRFTISRDNAKITVYLQMYSLKPEDSAVYYCNAVYIVGGDWGQGTQVTVSS"
  property.measured: "polyreactivity (PSR sort gate)"
  assay.result: "high polyreactivity"
- macromolecule.sequence: "QVQLVESGGGLVQAGGSLRLSCAASGSIFPYYALGRYRQAPGKERELVADITSSGGSTYYADSVKGRFTISRDNAKNTVYLQMNSLKPEDTAVYYCAALYWFYVYPFTEYDYWGQGTQVTVSS"
  property.measured: "polyreactivity (PSR sort gate)"
  assay.result: "low polyreactivity"

---

assay.comment: yeast display, Sf9 membrane polyspecificity reagent, FACS + sequencing; frameworks hold sequencing errors

- macromolecule.sequence: "QVQLVESGGGLVQAGGSLRLSCAASGLTFSVYAMGWYRPAPGKERELVAAISGSGGSTYYADSVKGRFTISRDNAKNTVYLQMNSLKPEDTAVYYCAARYDVHYDGMDYWGQGTQVTLSS"
  polyreactivity (PSR sort gate): "low polyreactivity"
- macromolecule.sequence: "QVRLVESAGGIVQAGGSLRLSCAASGRTFSVHAMGWYTQAPGKERELVAAISWDGGSTYYGDSVKGRFTISRDNSKNTVYLQMNSLKPEDTAVYYCYKELYYAYDYWGLGTQVTVSS"
  polyreactivity (PSR sort gate): "low polyreactivity"
- macromolecule.sequence: "QVQLVESGGGLVQAGGSLRLSCAASGNIFYVYVMGWYRQAPGKERELVASITSGASTYYADSVKGRFTISRDNAKNTVYLQMNSLKPEDTAVYYCAAEALGGAGDYSTLYIYDYWGQGTQVTVSS"
  polyreactivity (PSR sort gate): "low polyreactivity"
- macromolecule.sequence: "QVQLVESGGGLVQAGGSLRLSCAASGSIFWLYAMGWYRQAPGKESELVAAIDSGDSTKYADSVKGRFTISRDNAKNTVYLQMNSLKPEDTAVYYCNASRRYHVRAPYDYWGQGTQVTVSS"
  polyreactivity (PSR sort gate): "low polyreactivity"
- macromolecule.sequence: "QVQLVESGGGLVQAGGSLRLSCAASGSIFIWYSMGWYRQAPGKERELVASITYSAGRTYYADSVKGRFTISRDNAKNTVYLQMNSLKPEDTAVYYCAADSPYVYTLDSYGEGDYWGQGSQVTVSS"
  polyreactivity (PSR sort gate): "low polyreactivity"
- macromolecule.sequence: "QVQLVESGGGLVQAGGSLRLSCAASGSTFKRNVMGWYRQAPGKERELVAAISRSTTSTYYADSVKGRFTISRDNAKNTVYLQMNSLKPEDTAVYYCATPHRYRVDYWGQGTQVTVSS"
  polyreactivity (PSR sort gate): "high polyreactivity"
- macromolecule.sequence: "QVQLVESGGGLVQAGGSLRLSCAASGNIFYYNAMGWYRQAPGKETELVADITWSGGSTYYADSVKGRFTISRDNAKNTVDLQMNSLKPEDTAVYYCADETFGYHRGRIADDYEYWGQGTQVTVSS"
  polyreactivity (PSR sort gate): "low polyreactivity"
- macromolecule.sequence: "EVQLVESGGGLVQAGGSLRLSCAASGRTFIWNAMGWYRQAPGKERELVAAITRNGDSTYYADSVKGRFTISRDNAKNTVYLQMNSLKPEDTAVYYCAAYSRVFVYRTVGNYGWMNYWGQGTQVTVSS"
  polyreactivity (PSR sort gate): "high polyreactivity"
- macromolecule.sequence: "QVQLVESGGGLVQAGGSLRLSCAASGSIFRSYAMGWYRQAPGKERELVAGISYSGGSTYYADSVKGRFTISRDNAKNTVYLQMNSLKPEDTAVYYCNTRTGAFFLSKPYDYWGQGTQVTVSS"
  polyreactivity (PSR sort gate): "low polyreactivity"
- macromolecule.sequence: "QVQLVESGGGLVQAGGSLRLSCAASGSTFEDNAMGWYRQAPGKERELVAVITWTGGSTYYADSVKGRFTISRDNAKNTVYLQMNSLKPEDTAGYYCAADGVVPGRFFWPAHAYDYCGQGTQVTVSS"
  polyreactivity (PSR sort gate): "low polyreactivity"
- macromolecule.sequence: "QVQLVESGGGLVQAGGSLRLSCAASGSTFWFYAMGWYRQAPGKERELVATITIGGRTYADSVKGRFTISRDNAKNTVYLQMNTLKPEDTAVYYCAARRGRLEYVNGRYDYWGQGTQVTVSS"
  polyreactivity (PSR sort gate): "low polyreactivity"

Taken from the nanobody polyreactivity screen of Harvey et al. (2022).
